Data origin: the supplement of paper PMC6555819

- Test system: PXR:RXRa (NR concentration 270 nM, RXRa partner concentration 90 nM)
- Protocol Text: PBM binding z-score (relative to random genomic background probes); higher = stronger binding; sequences stand for … in GC…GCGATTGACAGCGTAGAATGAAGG
Property: PBM binding z-score; scope: individual sequences

- Residue Sequence: "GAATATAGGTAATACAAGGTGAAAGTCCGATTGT"
  Measured On: "PXR:RXRa (NR concentration 270 nM, RXRa partner concentration 90 nM)"
  PBM binding z-score: 0.776
- Residue Sequence: "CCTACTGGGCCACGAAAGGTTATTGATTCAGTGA"
  Measured On: "PXR:RXRa (NR concentration 270 nM, RXRa partner concentration 90 nM)"
  PBM binding z-score: 1.43
- Residue Sequence: "TCTACTAGGTCAACGATGGTCAGCTAATCTGCTA"
  Measured On: "PXR:RXRa (NR concentration 270 nM, RXRa partner concentration 90 nM)"
  PBM binding z-score: 1.93
- Residue Sequence: "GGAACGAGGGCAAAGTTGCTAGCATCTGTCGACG"
  Measured On: "PXR:RXRa (NR concentration 270 nM, RXRa partner concentration 90 nM)"
  PBM binding z-score: 0.708

----------
- Tested on: RARa:RXR (NR concentration 270 nM, RXRa partner concentration 90 nM)
- Protocol Text: PBM binding z-score (relative to random genomic background probes); higher = stronger binding; sequences stand for … in GC…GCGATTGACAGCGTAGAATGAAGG

- Residue Sequence: "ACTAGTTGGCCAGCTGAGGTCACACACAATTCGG"
  PBM binding z-score: 4.57
- Residue Sequence: "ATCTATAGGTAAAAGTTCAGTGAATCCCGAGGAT"
  PBM binding z-score: 1.84
- Residue Sequence: "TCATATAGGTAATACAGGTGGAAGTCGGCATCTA"
  PBM binding z-score: 0.763
- Residue Sequence: "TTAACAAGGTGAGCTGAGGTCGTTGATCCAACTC"
  PBM binding z-score: 1.62
- Residue Sequence: "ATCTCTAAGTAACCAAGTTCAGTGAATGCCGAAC"
  PBM binding z-score: 0.788
- Residue Sequence: "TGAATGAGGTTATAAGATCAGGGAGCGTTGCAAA"
  PBM binding z-score: 0.968
- Residue Sequence: "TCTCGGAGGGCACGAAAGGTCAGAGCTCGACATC"
  PBM binding z-score: 5.45
- Residue Sequence: "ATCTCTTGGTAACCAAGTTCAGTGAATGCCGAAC"
  PBM binding z-score: 0.475
- Residue Sequence: "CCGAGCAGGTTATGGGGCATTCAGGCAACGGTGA"
  PBM binding z-score: 0.225
- Residue Sequence: "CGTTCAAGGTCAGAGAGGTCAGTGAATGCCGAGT"
  PBM binding z-score: 5.57
- Residue Sequence: "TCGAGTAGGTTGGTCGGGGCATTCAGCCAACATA"
  PBM binding z-score: 0.0862
- Residue Sequence: "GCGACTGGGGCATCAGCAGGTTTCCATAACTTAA"
  PBM binding z-score: -0.096
- Residue Sequence: "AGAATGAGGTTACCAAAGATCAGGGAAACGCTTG"
  PBM binding z-score: 2.16
- Residue Sequence: "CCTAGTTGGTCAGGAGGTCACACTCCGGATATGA"
  PBM binding z-score: 4.82
- Residue Sequence: "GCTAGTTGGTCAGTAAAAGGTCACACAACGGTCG"
  PBM binding z-score: 6.17
- Residue Sequence: "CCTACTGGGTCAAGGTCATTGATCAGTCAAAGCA"
  PBM binding z-score: 4.8
- Residue Sequence: "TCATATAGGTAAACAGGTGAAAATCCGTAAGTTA"
  PBM binding z-score: 1.4
- Residue Sequence: "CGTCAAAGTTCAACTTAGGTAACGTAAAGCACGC"
  PBM binding z-score: 4.61
- Residue Sequence: "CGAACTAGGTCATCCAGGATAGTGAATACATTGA"
  PBM binding z-score: 2.18
- Residue Sequence: "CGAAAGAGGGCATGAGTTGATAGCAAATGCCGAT"
  PBM binding z-score: 0.777
- Residue Sequence: "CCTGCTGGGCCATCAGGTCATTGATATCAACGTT"
  PBM binding z-score: 1.83
- Residue Sequence: "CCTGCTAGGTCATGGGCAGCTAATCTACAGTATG"
  PBM binding z-score: 2.68
- Residue Sequence: "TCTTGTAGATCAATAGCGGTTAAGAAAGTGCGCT"
  PBM binding z-score: 0.439
- Residue Sequence: "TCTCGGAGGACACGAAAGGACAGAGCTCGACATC"
  PBM binding z-score: 0.0232
- Residue Sequence: "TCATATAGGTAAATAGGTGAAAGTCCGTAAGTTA"
  PBM binding z-score: 1.44
- Residue Sequence: "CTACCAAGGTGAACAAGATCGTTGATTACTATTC"
  PBM binding z-score: 0.949
- Residue Sequence: "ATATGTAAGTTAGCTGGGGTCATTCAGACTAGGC"
  PBM binding z-score: 5.31
- Residue Sequence: "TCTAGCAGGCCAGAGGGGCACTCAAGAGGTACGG"
  PBM binding z-score: -0.329
- Residue Sequence: "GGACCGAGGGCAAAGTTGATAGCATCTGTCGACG"
  PBM binding z-score: 1.26
- Residue Sequence: "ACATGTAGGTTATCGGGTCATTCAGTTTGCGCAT"
  PBM binding z-score: 3.88
- Residue Sequence: "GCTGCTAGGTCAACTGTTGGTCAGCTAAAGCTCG"
  PBM binding z-score: 2.9
- Residue Sequence: "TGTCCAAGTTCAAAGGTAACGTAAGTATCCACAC"
  PBM binding z-score: 5.04
- Residue Sequence: "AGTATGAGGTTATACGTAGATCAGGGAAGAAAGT"
  PBM binding z-score: 1.66
- Residue Sequence: "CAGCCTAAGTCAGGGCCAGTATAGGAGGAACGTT"
  PBM binding z-score: -0.178
- Residue Sequence: "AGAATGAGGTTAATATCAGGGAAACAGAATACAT"
  PBM binding z-score: 1.74
- Residue Sequence: "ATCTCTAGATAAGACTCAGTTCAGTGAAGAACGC"
  PBM binding z-score: -0.0778
- Residue Sequence: "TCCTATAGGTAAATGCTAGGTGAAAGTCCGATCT"
  PBM binding z-score: 0.694
- Residue Sequence: "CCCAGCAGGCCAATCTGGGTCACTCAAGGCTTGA"
  PBM binding z-score: 1.46
